Origin of values: patent US8288555B2

# reported EC50; entries follow
# TESTED_TARGET: human S1P4 receptor (Homo sapiens, UniProt O95977)
# Construct: membranes used
# Sequence (O95977 1-384): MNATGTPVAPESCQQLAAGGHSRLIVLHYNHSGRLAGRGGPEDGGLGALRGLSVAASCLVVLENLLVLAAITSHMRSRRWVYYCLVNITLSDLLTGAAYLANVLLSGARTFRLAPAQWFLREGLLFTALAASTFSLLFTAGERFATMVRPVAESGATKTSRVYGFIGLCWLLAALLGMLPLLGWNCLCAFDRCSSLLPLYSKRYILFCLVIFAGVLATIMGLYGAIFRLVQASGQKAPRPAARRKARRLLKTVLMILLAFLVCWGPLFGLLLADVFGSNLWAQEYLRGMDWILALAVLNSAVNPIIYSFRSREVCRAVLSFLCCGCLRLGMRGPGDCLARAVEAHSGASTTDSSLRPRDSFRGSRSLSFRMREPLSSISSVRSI
# PROTOCOL_NOTES: GTP γ35S binding assay for S1P4 activity
# PROTOCOL_CONDITIONS: activity potency at the S1P4 receptor from GTP γ35S binding; membranes of cells stably expressing the S1P4 receptor; test compounds 0.08 to 5,000 nM

[
  {
    "COMPOUND": "CNc1ncccc1-c1noc(/C(=C/c2ccc(C)c(C)c2)c2ccccc2OC)n1",
    "EC50 / nM": 501
  },
  {
    "COMPOUND": "CNc1ncccc1-c1noc(/C(=C/c2ccc(C)c(C)c2)c2cccc(OC)c2)n1",
    "EC50 / nM": 1780
  },
  {
    "COMPOUND": "CNc1ncccc1-c1noc(/C(=C/c2ccc(C)c(C)c2)c2ccsc2)n1",
    "EC50 / nM": 665
  },
  {
    "COMPOUND": "CNc1ncccc1-c1noc(/C(=C/c2ccc(C)c(C)c2)c2cccc(Cl)c2)n1",
    "EC50 / nM": 79.3
  },
  {
    "COMPOUND": "CNc1ncccc1-c1noc(/C(=C/c2ccc(C)c(C)c2)c2cccc(C)c2)n1",
    "EC50 / nM": 2020
  },
  {
    "COMPOUND": "CNc1ncccc1-c1noc(/C(=C/c2ccc(C)c(C)c2)c2cccs2)n1",
    "EC50 / nM": 140
  },
  {
    "COMPOUND": "CNc1ncccc1-c1noc(/C(=C/c2ccc(C)c(C)c2)c2cccc(F)c2)n1",
    "EC50 / nM": 375
  },
  {
    "COMPOUND": "CNc1ncccc1-c1noc(/C(=C/c2ccc(C)cc2)c2cccs2)n1",
    "EC50 / nM": 635
  },
  {
    "COMPOUND": "CNc1ncccc1-c1noc(/C(=C/c2ccc(C)c(C)c2)c2cc(F)cc(F)c2)n1",
    "EC50 / nM": 550
  },
  {
    "COMPOUND": "CNc1ncccc1-c1noc(/C(=C/c2ccccc2C)c2cccc(Cl)c2)n1",
    "EC50 / nM": 2000
  }
]
